Origin of measurements: paper PMC9953885

Would you kindly list % of control remaining for each of these molecules?
- system_tested: human pancreatic lipase (hPL) (Homo sapiens, UniProt P16233)
- Construct: gene PNLIP
- Sequence (P16233 17-465): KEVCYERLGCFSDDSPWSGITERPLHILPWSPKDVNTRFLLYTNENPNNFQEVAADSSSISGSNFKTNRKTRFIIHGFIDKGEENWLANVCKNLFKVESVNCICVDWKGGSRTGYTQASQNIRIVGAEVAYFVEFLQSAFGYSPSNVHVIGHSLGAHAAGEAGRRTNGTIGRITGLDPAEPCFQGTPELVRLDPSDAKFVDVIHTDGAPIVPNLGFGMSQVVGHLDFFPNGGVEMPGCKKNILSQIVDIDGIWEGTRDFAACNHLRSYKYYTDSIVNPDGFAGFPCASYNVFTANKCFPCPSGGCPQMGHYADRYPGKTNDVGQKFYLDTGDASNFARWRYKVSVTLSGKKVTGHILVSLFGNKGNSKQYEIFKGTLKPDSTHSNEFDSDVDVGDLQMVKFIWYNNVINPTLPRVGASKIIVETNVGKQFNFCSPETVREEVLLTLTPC
- measurement_context: 10 µM; inhibitor
Structures can show the parent of a compound that is named as a salt.
Your answer is read as %, so omit the unit and give the number.

QUERY: Requested field: % of control remaining. Item: C[C@H]1CC[C@@]2(OC1)O[C@H]1C[C@H]3[C@@H]4CC[C@@H]5C[C@@H](O[C@@H]6O[C@H](CO)[C@H](O)[C@H](O)[C@H]6O[C@@H]6O[C@H](CO)[C@@H](O)[C@H](O)[C@H]6O)CC[C@]5(C)[C@H]4CC[C@]3(C)[C@H]1[C@@H]2C
RESULT: 95.12

QUERY: Requested field: % of control remaining. Item: CC[C@H]1CN2CC[C@@]3(C(=O)Nc4ccccc43)[C@@H]2C[C@@H]1/C(=C\OC)C(=O)OC
RESULT: 87.99

QUERY: Requested field: % of control remaining. Item: O=C(O)/C=C/c1ccccc1 [trans-Cinnamic acid]
RESULT: 72.50

QUERY: Requested field: % of control remaining. Item: O=c1c(O)c(-c2ccc(O)cc2O)oc2cc(O)cc(O)c12 [Morin hydrate]
RESULT: 96.10

QUERY: Requested field: % of control remaining. Item: CCC(C)(C)C(=O)O[C@H]1C[C@@H](C)C=C2C=C[C@H](C)[C@H](CC[C@@H]3C[C@@H](O)CC(=O)O3)[C@H]21
RESULT: 84.18

QUERY: Requested field: % of control remaining. Item: CC(NC(C)(C)C)C(=O)c1cccc(Cl)c1 (stereo not drawn) [bupropion hydrochloride]
RESULT: 120.79

QUERY: Requested field: % of control remaining. Item: O=C1c2c(O)cc(O)cc2O[C@H](c2ccc(O)c(O)c2)[C@H]1O
RESULT: 97.17

QUERY: Requested field: % of control remaining. Item: CC(=O)Nc1ccc(OC(=O)c2ccccc2OC(C)=O)cc1 [Benorilate]
RESULT: 76.99

QUERY: Requested field: % of control remaining. Item: COc1cc(OC)c(CCC(=O)c2ccc(O)cc2)c(OC)c1
RESULT: 79.89

QUERY: Requested field: % of control remaining. Item: COC(=O)/C=C/c1ccc(O)c(O)c1 [Methyl caffeate]
RESULT: 72.74

QUERY: Requested field: % of control remaining. Item: O=C(NC[C@H]1CN(c2ccc(N3CCOCC3=O)cc2)C(=O)O1)c1ccc(Cl)s1
RESULT: 118.66

QUERY: Requested field: % of control remaining. Item: CC[C@H](C)C(=O)O[C@H]1C[C@@H](C)C=C2C=C[C@H](C)[C@H](CC[C@@H]3C[C@@H](O)CC(=O)O3)[C@H]21
RESULT: 80.96

QUERY: Requested field: % of control remaining. Item: COc1ccc2c(c1)[C@]13CCCC[C@@H]1[C@H](C2)N(C)CC3
RESULT: 89.61

QUERY: Requested field: % of control remaining. Item: COc1ccc(-c2cc(=O)c3c(O)c(OC)c(OC)cc3o2)cc1
RESULT: 75.70

QUERY: Requested field: % of control remaining. Item: CC(C)OC(=O)C(C)(C)Oc1ccc(C(=O)c2ccc(Cl)cc2)cc1 [Fenofibrate]
RESULT: 94.68

QUERY: Requested field: % of control remaining. Item: COc1c2ccoc2cc2oc(=O)ccc12
RESULT: 54.11

QUERY: Requested field: % of control remaining. Item: O=c1c(O)c(-c2ccc(O)c(O)c2)oc2cc(O)cc(O)c12
RESULT: 47.29

QUERY: Requested field: % of control remaining. Item: Cc1coc2c1CCC(C)C2 (stereo not drawn)
RESULT: 108.33
